Values from ChEMBL document CHEMBL1135258

For each of the compounds below, state its Ratio.
# experimental system: Thioesterase GrsT homolog tycF (Brevibacillus brevis) (UniProt O30412)
# Sequence (O30412 as listed by the source): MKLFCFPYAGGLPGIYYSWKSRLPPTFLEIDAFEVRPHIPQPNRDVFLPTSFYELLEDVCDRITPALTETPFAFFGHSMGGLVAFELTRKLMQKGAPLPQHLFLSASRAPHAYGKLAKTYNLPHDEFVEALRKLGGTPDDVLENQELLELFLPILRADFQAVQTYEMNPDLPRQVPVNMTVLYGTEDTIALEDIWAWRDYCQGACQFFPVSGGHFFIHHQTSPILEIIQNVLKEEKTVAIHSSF
# test: Catalytic efficiency (Kcat/Km) was determined
# Set-up: unit not given here
When you answer, write just the number.

Prompt: Query Ratio on Thioesterase GrsT homolog tycF (Brevibacillus brevis) (UniProt O30412) for CC(=O)NCCSC(=O)[C@H](CC(C)C)NC(=O)[C@H](CCCN)NC(=O)[C@@H](NC(=O)[C@H](Cc1ccc(O)cc1)NC(=O)[C@H](CCC(N)=O)NC(=O)[C@H](CC(N)=O)NC(=O)[C@H](Cc1ccc(O)cc1)NC(=O)[C@H](Cc1ccccc1)NC(=O)[C@@H]1CCCN1C(=O)[C@H](N)Cc1ccccc1)C(C)C
Response: 0.17

Prompt: Proceed to CC(=O)NCCSC(=O)[C@H](CC(C)C)NC(=O)[C@H](CCCN)NC(=O)[C@@H](NC(=O)[C@H](Cc1ccc(O)cc1)NC(=O)[C@H](CCC(N)=O)NC(=O)[C@H](CC(C)C)NC(=O)[C@@H](Cc1ccccc1)NC(=O)[C@H](Cc1ccccc1)NC(=O)[C@@H]1CCCN1C(=O)[C@H](N)Cc1ccccc1)C(C)C
Response: 0.23

---

# experimental system: Thioesterase GrsT homolog tycF (Brevibacillus brevis)
# test: Catalytic efficiency (Kcat/Km) was determined
# Set-up: unit not given here
metric: Ratio
When you answer, write just the number.

Prompt: Any idea what Ratio was measured for CC(=O)NCCSC(=O)[C@H](CC(C)C)NC(=O)[C@H](CCCN)NC(=O)[C@@H](NC(=O)[C@H](CC(N)=O)NC(=O)[C@H](CCC(N)=O)NC(=O)[C@H](CC(N)=O)NC(=O)[C@@H](Cc1ccccc1)NC(=O)[C@H](Cc1ccccc1)NC(=O)[C@@H]1CCCN1C(=O)[C@H](N)Cc1ccccc1)C(C)C ?
Response: 2.63

Prompt: Proceed to CC(=O)NCCSC(=O)[C@H](CC(C)C)NC(=O)[C@H](CCCN)NC(=O)[C@@H](NC(=O)[C@H](Cc1ccc(O)cc1)NC(=O)[C@H](CCC(N)=O)NC(=O)[C@H](CC(N)=O)NC(=O)[C@H](C)NC(=O)[C@H](Cc1ccccc1)NC(=O)[C@@H]1CCCN1C(=O)[C@H](N)Cc1ccccc1)C(C)C
Response: 0.6

Prompt: Proceed to CC(=O)NCCSC(=O)[C@H](CC(C)C)NC(=O)[C@H](CCCN)NC(=O)[C@@H](NC(=O)[C@H](Cc1ccc(O)cc1)NC(=O)[C@H](CC(N)=O)NC(=O)[C@H](CC(N)=O)NC(=O)[C@@H](Cc1ccccc1)NC(=O)[C@H](Cc1ccccc1)NC(=O)[C@@H]1CCCN1C(=O)[C@H](N)Cc1ccccc1)C(C)C
Response: 0.72

Prompt: Proceed to CC(=O)NCCSC(=O)[C@H](CC(C)C)NC(=O)[C@H](CCCN)NC(=O)[C@@H](NC(=O)[C@H](Cc1ccc(O)cc1)NC(=O)[C@H](CCC(N)=O)NC(=O)[C@H](CC(N)=O)NC(=O)[C@H](Cc1c[nH]cn1)NC(=O)[C@H](Cc1ccccc1)NC(=O)[C@@H]1CCCN1C(=O)[C@H](N)Cc1ccccc1)C(C)C
Response: 0.15

Prompt: Proceed to CC(=O)NCCSC(=O)[C@H](CC(C)C)NC(=O)[C@H](CCCN)NC(=O)[C@@H](NC(=O)[C@H](Cc1ccc(O)cc1)NC(=O)[C@H](CCC(N)=O)NC(=O)[C@H](CC(N)=O)NC(=O)[C@H](CC(=O)O)NC(=O)[C@H](Cc1ccccc1)NC(=O)[C@@H]1CCCN1C(=O)[C@H](N)Cc1ccccc1)C(C)C
Response: 0.058
